Source of measurements: PubChem BioAssay

Target: Epidermal growth factor receptor (Homo sapiens)
Assay: compounds binding epidermal growth factor receptor – biochemical, small-molecule microarray, 635 nm fluorescence, primary screen (AID 1104);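 further: score merges 667 nm emission intensity with spot signal to noise over triplicate slides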
Details: EGFR binding, higher = more signal
metric: composite z-score
Please reply with the value in numeric form only.

Would you please look over these solved cases?
structure	composite z-score
CCCC=C(CCC)[C@@H](NS(=O)(=O)c1ccccc1)c1ccc(C(F)(F)F)cc1	0.216
CC(C)C[C@@H]1NC(=O)[C@@H]2C[C@H](C(=O)NCCCC[N+](C)(C)C)[C@H](c3cccc(OCCO)c3)N2C1=O	0.357
C=CCN1C(=O)[C@@]2(O[C@@H](CCO)[C@H]([Si](C)(C)c3ccc(OC)cc3)[C@H]2C)c2cc(NC(=O)[C@H](C)O)ccc21	-0.242

Next item in the queue.
### Prompt Hello, I am looking for reported composite z-score with Epidermal growth factor receptor (Homo sapiens) for CCOC(=O)C1=CC[C@@H](c2ccc(N(CC)CC)cc2)N(S(=O)(=O)c2ccc(C)cc2)[C@H]1c1ccc([N+](=O)[O-])cc1 . Could you help?
### Response -1.17

====

Assay: compound effects on differentiated 3T3-L1 adipocyte viability – cell-based, 3T3-L1 adipocytes, calcein-AM fluorescence, 48 h, basal, profiling panel (AID 1163); further: test concentration not given here
Conditions: 3T3-L1 adipocytes viability, higher = more signal
metric: z-score
Please state the value as a number alone, without comment.

molecule	z-score
CCCCCCC#C[Si](O[C@H](c1ccccc1)c1cn(Cc2cccc(Cl)c2)nn1)(C(C)C)C(C)C	-0.896
O=C1C[C@@](C(=O)O)(c2ccc([N+](=O)[O-])cc2)[C@@H](c2ccc(CO)cc2)N1CC12CC3CC(CC(C3)C1)C2	0.0068
CC(C)(C)OC(=O)CC[C@]1(C(=O)O)COC(c2ccc(OCCCO)cc2)=N1	-2.83
COc1ccc([Si](C)(C)[C@H]2[C@H](CCO)O[C@@]3(C(=O)N(Cc4cccc(N5CCOC5=O)c4)c4ccccc43)[C@@H]2C)cc1	-0.824
CC(C)c1ccc(NN2C(C(O)c3cccs3)C=CC3C(=O)N(c4ccccc4)C(=O)C32)cc1 (centres undefined)	-0.986
O=C1O[C@H](c2ccccc2)[C@H](c2ccccc2)N2[C@H]1[C@@H](C(=O)N1CCCCCCC1)[C@]1(C(=O)Nc3ccccc31)[C@H]2c1ccc(O)cc1	0.759
CC(C)C(CO)N1C(=O)[C@@H]2[C@H]3C(=O)OCC=C[C@H]3OC23C=CCN(Cn2nnc4ccccc42)C(=O)[C@@H]13 (some centres undefined)	-0.191
O=C1c2ccccc2C(=O)C2CC([C@H]3Oc4ccccc4S(=O)(=O)N4CCC[C@@H]34)=CCC12 (some centres undefined)	0.703

Would you kindly look at the next entry?
### Prompt Requested read-out: z-score. Entry: COCC(=C=CC[C@@H](O)c1ccccc1OCCO)C[C@@H](O)c1ccccn1
### Response 0.158

====

Biological target: Left-right determination factor 2 (Homo sapiens)
Assay: small molecules binding LEFTY2 protein – biochemical, small-molecule microarray, 635 nm fluorescence scan, primary screen (AID 1110)
Conditions: higher = more signal
Threshold check on composite z-score: at or above 0.06 gives true (1), strictly below gives false (0).

Solved cases (5 shown):
compound	assignedClass
O=C1OCCC=C[C@H]2OC34C=CCN(Cn5nnc6ccccc65)C(=O)[C@H]3N(CCCCCO)C(=O)[C@@H]4C12 (stereo partly specified)	false (0)
CCCCC(CC)C(O)C1C=CC2C(=O)NC(=O)C2N1Nc1ccccn1 (stereo unspecified)	true (1)
CN1C(=O)C2C=CC(C(O)c3ccc(F)cc3)N(N3CCCCC3)C2C1=O (stereo unspecified)	false (0)
COCCOC(=O)N1C(=O)[C@@]2(c3cc(C#Cc4ccc(OC)cc4)ccc31)[C@H](c1ccc(OCCO)cc1)N1[C@H](c3ccccc3)[C@H](c3ccccc3)OC(=O)[C@H]1[C@@H]2C(N)=O	true (1)
CCOc1cc(C(O)C2C=CC3C(=O)NC(=O)C3N2Nc2ccccn2)ccc1O (stereo unspecified)	true (1)

Please look at the following compound next.
### Prompt Test whether the compound C=CCN1C(=O)[C@@]2(O[C@@H](CCn3cc([C@H](O)c4ccccc4)nn3)[C@H]([Si](C)(C)c3ccc(OC)cc3)[C@H]2C)c2cc(NC(=O)c3ccc(OC)cc3)ccc21 records composite z-score of 0.06 or higher.
### Response true (1)

====

Tested on: Human papillomavirus type 1a E7 protein (residues 1-88)
Test: HPV1a E7 small-molecule binders, primary screen, biochemical, small-molecule microarray, residues 1-88, 635 nm (AID 1129)
Conditions: small-molecule microarray binding, fluorescence 635 nm; higher = more signal
Catalogue of compounds with associated composite z-score
Respond with the number and no other words.

Please review the entries below; each comes with its answer.
compound	composite z-score
CC(C)c1ccc(NN2C(C(O)c3ccccn3)C=CC3C(=O)N(c4ccccc4)C(=O)C32)cc1 (stereo unspecified)	1.28
[N-]=[N+]=NCc1ccccc1C[C@@]1(C(=O)NCCN2CCOCC2)N=C(c2ccc(OCCCO)cc2)O[C@@H]1c1ccccc1CN=[N+]=[N-]	1.21
NC(=O)NCC#Cc1ccc2c(c1)[C@]1(C(=O)N2)[C@H](c2ccc(O)cc2)N2[C@H](c3ccccc3)[C@H](c3ccccc3)OC(=O)[C@H]2[C@@H]1C(N)=O	-1.21

### Prompt Could you share which composite z-score value was measured for COCCOC(=O)N1C(=O)[C@@]2(c3cc(C#Cc4ccc(OC)cc4)ccc31)[C@H](C(=O)N1CCc3cc(OC)c(OC)cc3C1)[C@H]1C(=O)O[C@H](c3ccccc3)[C@H](c3ccccc3)N1[C@@H]2c1ccc(OCCO)cc1 ?
### Response 1.13

### Prompt Next up: CN(C)CCCC[C@@H]1NC(=O)[C@H]2C[C@@H](C(=O)NCCCCCCNC(=O)CS)[C@@H](c3ccc(O)cc3)N2C1=O
### Response 0.0218

### Prompt Moving on to the next compound: CC(C)C(CO)N1C(=O)[C@@H]2[C@H]3C(=O)OCC=C[C@H]3OC23C=CCN(CCN2CCOCC2)C(=O)[C@@H]13 (stereo partly specified)
### Response -0.438

====

Test system: Chordin-like protein 2 (CHRDL2)
Assay: compounds binding chordin-like 2 – biochemical, small-molecule microarray, 635 nm fluorescence, primary screen (AID 1126);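 further: printed compound slides probed with Chrdl2 protein at 4 µg/mL for 1 h at 4 C; score merges 667 nm emission intensity with signal to noise over three replicate slides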
Settings: fluorescence 635 nm, higher = more signal
metric: composite z-score
Format: numeric value only, no unit, no commentary.

compound	composite z-score
COc1ccccc1CN1C(=O)c2ccccc2[C@@]2(Cc3ccccc3N(C3CC3)C2=O)[C@@H]1c1ccc(CO)cc1	-0.39
CC(C)C[C@@H]1NC(=O)[C@@]23C(=O)N[C@@H](Cc4ccccc4)C2[C@H](C)[C@@]2(C)O[C@H]2C3/C=C/C/C=C\CNC(=O)[C@@H]2CCCN2C1=O (stereo not given in full)	0.698
CN(C)CCCC[C@@H]1NC(=O)[C@H]2C[C@@H](C(=O)NCCCCCCNC(=O)CS)[C@@H](c3ccc(O)cc3)N2C1=O	-0.0412

### Prompt Suppose we examine the compound CCC[C@@H]1C[C@@]1(CCC)[C@@H](NC(=O)c1cccs1)c1ccc(Cl)cc1 ; what composite z-score value has been reported?
### Response -0.693

### Prompt Now the compound O=C1O[C@H](c2ccccc2)[C@H](c2ccccc2)N2[C@H]1[C@@H](C(=O)N1CCCCCCC1)[C@]1(C(=O)Nc3ccccc31)[C@H]2c1ccc(O)cc1
### Response 1.71

====

Assay: resazurin metabolic signal in HepG2 cells – cell-based, resazurin fluorescence, 24 h, PK04 Diversity Set, profiling panel (AID 1172); further: test concentration not given here
Conditions: HepG2 viability, higher = more signal
metric: z-score
Simply state the number, no unit and no words.

molecule	metric	reportedMeasurement
COc1ccccc1CN1C(=O)c2ccccc2[C@@]2(Cc3ccccc3N(C3CC3)C2=O)[C@@H]1c1ccc(CO)cc1	z-score	0.409
O=C1C2C=CC(C(O)c3ccc(Br)cc3)N(Nc3ccccc3)C2C(=O)N1c1ccccc1 (configuration not stated)	z-score	-0.69
COCCOC(=O)N1C(=O)[C@@]2(c3cc(C#Cc4ccc(OC)cc4)ccc31)[C@H](C(=O)N1CCc3cc(OC)c(OC)cc3C1)[C@H]1C(=O)O[C@H](c3ccccc3)[C@H](c3ccccc3)N1[C@@H]2c1ccc(OCCO)cc1	z-score	-0.562
COCCCNC(=O)[C@@]1(C)c2ccccc2C(=O)N(c2ccc(C)cn2)[C@H]1c1ccc(CO)cc1	z-score	0.361
[N-]=[N+]=Nc1ccccc1[C@H]1OC(c2ccc(OCCCO)cc2)=N[C@@]1(Cc1ccccc1)C(=O)NCc1ccccc1	z-score	-0.171
COC(=O)[C@]1(Cc2ccccc2N=[N+]=[N-])N=C(c2ccc(OCCCO)cc2)O[C@@H]1c1ccccc1	z-score	-6.11

Lab note: next molecule to report on.
### Prompt Which z-score is reported for this molecule? C=CCOc1ccc([C@@H]2CC=C(C(=O)OCC)[C@H](c3cccc(Br)c3)N2S(=O)(=O)c2ccc(C)cc2)cc1
### Response -0.696
